Target: XLF (UniProt Q9H9Q4 1-299)
Sequence (Q9H9Q4 whole entry): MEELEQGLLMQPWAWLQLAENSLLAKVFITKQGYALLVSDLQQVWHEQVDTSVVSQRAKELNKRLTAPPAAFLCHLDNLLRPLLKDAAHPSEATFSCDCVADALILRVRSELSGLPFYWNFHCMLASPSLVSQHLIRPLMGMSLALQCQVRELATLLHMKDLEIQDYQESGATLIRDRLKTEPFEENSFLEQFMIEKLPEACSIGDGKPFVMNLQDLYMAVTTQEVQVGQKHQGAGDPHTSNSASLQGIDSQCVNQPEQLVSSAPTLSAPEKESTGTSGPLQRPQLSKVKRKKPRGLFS
Assay: NMR titration (2D lineshape, TITAN); apparent KD; NMR buffer (composition, salt and pH not in material); 800 MHz, 298 K stated for relaxation measurements; EMSA buffer not given
Details: protein: recombinant; tags: N-terminal 6xHis-TEV; chain copies: 2; blunt
Catalogue of binders with associated Kd
Answer format: numeric, µM implied, no suffix.

// worked examples, Kd included
binder	assay_result
30mer AT-rich DNA (dsDNA) DNA 1: GAAGTAAAATTAAAAAAACAAAAAGAAGCT DNA 2: AGCTTCTTTTTGTTTTTTTAATTTTACTTC	4.3
30mer GC-rich DNA (dsDNA) DNA 1: TACCGGGGCGCGAGCCCAGCGCTCCTCCCA DNA 2: TGGGAGGAGCGCTGGGCTCGCGCCCCGGTA	6.39

Field: next binder
**Q:** // returns reported Kd for input 30mer DNA (random) (dsDNA) DNA 1: GATCCCTCTAGATATCGGGCCCTCGATCCG DNA 2: CGGATCGAGGGCCCGATATCTAGAGGGATC
**A:** 14.3
